test system: A549 NSCLC; experiment: NCI tumour cell line growth inhibition, 48 h
Where a SMILES comes first, the peptide text is derived from it. [ ]: non-standard residue; d: D form. The star is where a group is joined. Phe(4-NO2) = N[CH](Cc1ccc([N+](=O)[O-])cc1)C(=O)O; Boc = CC(C)(C)OC(=O)*
READOUT_NAME: TGI

| COMPOUND | RECORDED_VALUE |
| --- | --- |
| CC(=O)N(CCCCNC(=O)C(F)(F)F)CCCNC(=O)C(F)(F)F | > 100 µM |
| COC(=O)C1(C)CCCC2(C)c3cc(OC)ccc3C(=O)C(Br)C12 (stereo unspecified) | > 10 µM |
| CCOP(=O)(OCC)C(Nc1cccc(F)c1)c1ccc(N(C)C)cc1 (stereo unspecified) | > 100 µM |
| CC12CC(=O)C3C(CCC4=CC(=O)CCC43C)C1CC=C2CC(=O)O (stereo unspecified) | > 100 µM |
| O=C1/C(=C/c2ccccc2[N+](=O)[O-])COc2ccc(O)c(O)c21 | 12.4 µM |
| COc1ccc(C(=C2C(=O)N(c3ccccc3)C(=O)C2=C(C)C)c2ccc(OC)cc2)cc1 | > 62.9 µM |
| Nc1nnc2oc3ccc4ccccc4c3cc1-2 | > 100 µM |
| COc1ccc(/C=C2\CCc3cc(OC)c(OC)cc3C2=O)cc1 | > 10 µM |
| COc1cc([N+](=O)[O-])ccc1N1C(=O)C2c3[nH]c4ccccc4c3C3CCC(C(C)(C)C)CC3C2C1=O (stereo unspecified) | > 100 µM |
| c1ccc([P+](c2ccccc2)(c2ccccc2)c2ccc(-c3ccc([P+](c4ccccc4)(c4ccccc4)c4ccccc4)cc3)cc2)cc1 | 87.9 µM |
| COc1ccc2c(c1)N(CCO)C1=C(C(=O)OC1)C2c1ccc(OC)c(OC)c1 (stereo unspecified) | > 100 µM |
| COc1ccc2c(c1)CCc1c-2n(CCN2CCOCC2)c2ccc(OC)cc12 | > 100 µM |
| CSc1nc(Br)nc2ncn(C3CC(Oc4ccc(C)cc4)C(COc4ccc(C)cc4)O3)c12 (stereo unspecified) | > 100 µM |
| COC(=O)CCC(NC(=O)OC(C)(C)C)C(=O)NC(Cc1ccc([N+](=O)[O-])cc1)C(=O)NC(CCC(=O)OC)C(=O)OC (stereo unspecified) (Boc-Glu(OMe)-[Phe(4-NO2)]-Glu(OMe)-OMe; configuration not given here) | > 100 µM |
| CN1CCc2cc3c4cc2C1Cc1ccc(cc1)Oc1cc(ccc1O)CC1c2c(cc(O)c(c2O4)O3)CCN1C (stereo unspecified) | 6.11 µM |
| COc1ccc2c(c1)/C(=C\c1c(Cl)n(-c3ccccc3)c3ccccc13)C(=O)N2 | 51.4 µM |

---

tested on: HOP-62 NSCLC; test: NCI tumour cell line growth inhibition, 48 h
READOUT_NAME: TGI

| MOLECULE | RECORDED_VALUE |
| --- | --- |
| CC1(O)COCCCCOc2c(CN)cccc2NC(=O)c2nc(cnc2N)-c2ccc(cc2)S(=O)(=O)C(C)(C)C1 (stereo unspecified) | 3.17 µM |
| NCCNCCCNC(=O)c1cc(-c2ccccc2)nc2ccccc12 | > 100 µM |
| Nc1ccc(C(=O)Nc2ccccc2N)cc1 | > 100 µM |
| COC(=O)c1ccccc1C1=C([N+](=O)[O-])C(c2cccc(Br)c2)C(C#N)=C(N)O1 (stereo unspecified) | > 100 µM |
| O=c1c2cc(O)c(O)cc2oc2cc(O)c(C3OC(CO)C(O)C(O)C3O)c(O)c12 (stereo unspecified) | > 100 µM |
| CCOP(=O)(OCC)C(Nc1cccc(F)c1)c1ccc(N(C)C)cc1 (stereo unspecified) | > 100 µM |
